Below, each entry is listed alongside its reported fold change (FC).
molecular target: Quinolone resistance protein NorA (Staphylococcus aureus) (UniProt P0A0J7); assay: Inhibition of NorA in Staphylococcus aureus ATCC 25923 assessed as fold reduction of ciprofloxacin MIC at 25 ug/mL by microdilution technique
Result Type: fold change (FC)

INSERT INTO results (compound, target_or_test_system, result) VALUES
  ('Cc1ccc(C2=Nc3ccccc3SC2)cc1', 'Quinolone resistance protein NorA (Staphylococcus aureus) (UniProt P0A0J7)', 4),
  ('O=S1(=O)C=C(c2ccc(Cl)cc2)Nc2ccccc21', 'Quinolone resistance protein NorA (Staphylococcus aureus) (UniProt P0A0J7)', 4),
  ('CSc1ccc(C2CSc3ccccc3N2)cc1 (stereo unspecified)', 'Quinolone resistance protein NorA (Staphylococcus aureus) (UniProt P0A0J7)', '> 8'),
  ('FC(F)(F)c1ccc2c(c1)N=C(c1ccccc1)CS2', 'Quinolone resistance protein NorA (Staphylococcus aureus) (UniProt P0A0J7)', 2),
  ('CCCOc1ccc(C2=Nc3ccccc3SC2)cc1', 'Quinolone resistance protein NorA (Staphylococcus aureus) (UniProt P0A0J7)', '> 8'),
  ('CC(C)CCOc1ccc(C2=Nc3ccccc3SC2)cc1', 'Quinolone resistance protein NorA (Staphylococcus aureus) (UniProt P0A0J7)', 4),
  ('Clc1ccc(C2=Nc3ccccc3SC2)cc1', 'Quinolone resistance protein NorA (Staphylococcus aureus) (UniProt P0A0J7)', 4),
  ('O=S1(=O)C=C(c2ccccc2)Nc2ccccc21', 'Quinolone resistance protein NorA (Staphylococcus aureus) (UniProt P0A0J7)', 2),
  ('COC(=O)[C@H]1[C@H]2C[C@@H]3c4[nH]c5cc(OC)ccc5c4CCN3C[C@H]2C[C@@H](OC(=O)c2cc(OC)c(OC)c(OC)c2)[C@@H]1OC [RESERPINE]', 'Quinolone resistance protein NorA (Staphylococcus aureus) (UniProt P0A0J7)', 2),
  ('Fc1ccc(C2=Nc3ccccc3SC2)cc1', 'Quinolone resistance protein NorA (Staphylococcus aureus) (UniProt P0A0J7)', 4),
  ('COc1cc(C2=Nc3ccccc3SC2)cc(OC)c1OC', 'Quinolone resistance protein NorA (Staphylococcus aureus) (UniProt P0A0J7)', 4);

* * *

tested on: Staphylococcus aureus; experiment: Antibacterial activity against wild type Staphylococcus aureus ATCC 25923 by microdilution technique; format: functional
Result Type: MIC (µg/mL)

INSERT INTO assay_data (compound_structure, target_or_test_system, result_type, reading_unit, value_qualifier, numeric_readout) VALUES
  ('O=S1(=O)C=C(c2ccc(Cl)cc2)Nc2ccccc21', 'Staphylococcus aureus', 'MIC', 'µg/mL', '=', 128),
  ('Fc1ccc(C2=Nc3ccccc3SC2)cc1', 'Staphylococcus aureus', 'MIC', 'µg/mL', '=', 64),
  ('CN(C)CCCN1c2ccccc2Sc2ccc(Cl)cc21', 'Staphylococcus aureus', 'MIC', 'µg/mL', '=', 128),
  ('COc1cccc(C2=Nc3ccccc3SC2)c1', 'Staphylococcus aureus', 'MIC', 'µg/mL', '=', 64),
  ('Cc1ccc(C2=Nc3ccccc3SC2)cc1', 'Staphylococcus aureus', 'MIC', 'µg/mL', '=', 64),
  ('COc1cc(C2=Nc3ccccc3SC2)cc(OC)c1OC', 'Staphylococcus aureus', 'MIC', 'µg/mL', '=', 32),
  ('O=S1(=O)C=C(c2ccccc2)Nc2ccccc21', 'Staphylococcus aureus', 'MIC', 'µg/mL', '=', 128),
  ('FC(F)(F)c1ccc2c(c1)N=C(c1ccccc1)CS2', 'Staphylococcus aureus', 'MIC', 'µg/mL', '=', 32),
  ('CCCOc1ccc(C2=CSc3ccccc3N2C)cc1', 'Staphylococcus aureus', 'MIC', 'µg/mL', '>', 512),
  ('COc1ccc(C2=Nc3ccccc3SC2)cc1OC', 'Staphylococcus aureus', 'MIC', 'µg/mL', '=', 128),
  ('O=[N+]([O-])c1ccc(C2=Nc3ccccc3SC2)cc1', 'Staphylococcus aureus', 'MIC', 'µg/mL', '>', 128),
  ('O=[N+]([O-])c1ccc(C2=Nc3cc(C(F)(F)F)ccc3SC2)cc1', 'Staphylococcus aureus', 'MIC', 'µg/mL', '=', 32);
